- test-method-notes: Pharmacokinetics of aminoglycosides in the rat
- recorded-conditions: plasma, sc, 10 mg/kg
- Experimental: Test compounds were dissolved in PBS at 1 mg/mL and administered subcutaneously in a volume of 10 mL/kg to deliver a dose of 10 mg/kg. […] The concentrations of test compound in plasma, kidney and muscle were quantified by liquid chromatography-tandem mass spectrometry (LC-MS/MS). […] The treated plasma and brain homogenate samples were centrifuged and the supernatant was collected and analyzed using electro-spray LC-MS/MS.
property-label: Tmax (min)
Number only, in min; omit the unit.

Qu. # lookup: Tmax of CN[C@@H]1[C@@H](O)[C@@H](O[C@@H]2[C@@H](O)[C@H](O[C@H]3O[C@H](CO)[C@@H](O)[C@H](O)[C@H]3N)[C@@H](N)C[C@H]2N)OC[C@]1(C)O (stereo in doubt)
Ans. 30

====

Recorded CC50 at 24 h by entry
- test-method-notes: Neuromast toxicity assay (DASPEI staining)
- recorded-conditions: zebrafish, zebrafish embryos 5 dpf, neuromasts (hair cells), other: embryos exposed to the drug in 24-well plates, Neuromast CC50, individual determinations (S1 File)
Number only, in µM; omit the unit.

Example cases with answers are listed next.
[[record]]
molecule = "CN[C@@H]1[C@@H](O)[C@@H](O[C@@H]2[C@@H](O)[C@H](O[C@H]3O[C@H](CO)[C@@H](O)[C@H](O)[C@H]3N)[C@@H](N)C[C@H]2N)OC[C@H]1O [Gentamicin A, gentamicin A]"
readout_value = 17

[[record]]
molecule = "CN[C@@H]1[C@@H](O)[C@@H](O[C@@H]2[C@@H](O)[C@H](O[C@H]3O[C@H]([C@H](C)N)CC[C@H]3N)[C@@H](N)C[C@H]2N)OC[C@]1(C)O [Gentamicin C2a, gentamicin C2a]"
readout_value = 2.7

[[record]]
molecule = "CN[C@@H]1[C@@H](O)[C@@H](O[C@@H]2[C@@H](O)[C@H](O[C@H]3O[C@H]([C@@H](C)NC)CC[C@H]3N)[C@@H](N)C[C@H]2N)OC[C@]1(C)O [Gentamicin C1, gentamicin C1]"
readout_value = 9.4


We next turn to a different molecule, shown below.
Qu. # lookup: CC50 at 24 h of CN[C@@H]1[C@@H](O)[C@@H](O[C@@H]2[C@@H](O)[C@H](O[C@H]3O[C@H]([C@@H](C)N)CC[C@H]3N)[C@@H](N)C[C@H]2N)OC[C@]1(C)O [Gentamicin C2, gentamicin C2]
Ans. 2.8

====

- System: activated human peripheral blood mononuclear cells (PBMCs)
- test-method-notes: Cytotoxicity in stimulated PBMCs (CellTitre-Glo ATP)
- recorded-conditions: read-out: Stimulated PBMC CC50; individual determinations (S1 File)
- Method: When considering compounds for potential readthrough therapy it is important to monitor cellular and animal safety. In order to determine the most promising compounds to further evaluate in in vivo safety, we measured cytotoxicity in two different cell types. […] Frozen human Peripheral Blood Mononuclear Cells (PBMCs) were obtained from […] […] Cell viability was determined using a chemiluminescent assay to monitor adenosine triphosphate (ATP) levels in live cells (CellTitre-Glo; CTG; Promega, Cat#G7571). […]
property-label: CC50

Qu. # lookup: CC50 of CN[C@@H]1[C@@H](O)[C@@H](O[C@@H]2[C@@H](O)[C@H](O[C@H]3O[C@H]([C@H](C)N)CC[C@H]3N)[C@@H](N)C[C@H]2N)OC[C@]1(C)O
Ans. > 1250 µM

====

- Test system: tGFP-CFTR542X-HA-HIS construct (codon 542 UGA) in 293H cells
- test-method-notes: tGFP-542X readthrough assay (HA-HIS MSD immunoassay)
- Type: cell-based, human
- recorded-conditions: maximum readthrough above background; average ± SD
property-label: tGFP-542X Maxfold (fold)
Number only, in fold; omit the unit.

Example cases with answers are listed next.
[[record]]
record_smiles = "CN[C@@H]1[C@@H](O)[C@@H](O[C@@H]2[C@@H](O)[C@H](O[C@H]3O[C@H](CO)[C@@H](O)[C@H](O)[C@H]3N)[C@@H](N)C[C@H]2N)OC[C@H]1O"
system = "tGFP-CFTR542X-HA-HIS construct (codon 542 UGA) in 293H cells"
readout_value = 4

[[record]]
record_smiles = "CN[C@@H]1[C@@H](O)[C@@H](O[C@@H]2[C@@H](O)[C@H](O[C@H]3O[C@H]([C@H](C)N)CC[C@H]3N)[C@@H](N)C[C@H]2N)OC[C@]1(C)O"
system = "tGFP-CFTR542X-HA-HIS construct (codon 542 UGA) in 293H cells"
readout_value = 3


We next turn to a different molecule, shown below.
Qu. tGFP-CFTR542X-HA-HIS construct (codon 542 UGA) in 293H cells / tGFP-542X Maxfold / CN[C@@H]1[C@@H](O)[C@@H](O[C@@H]2[C@@H](O)[C@H](O[C@H]3O[C@H]([C@@H](C)N)CC[C@H]3N)[C@@H](N)C[C@H]2N)OC[C@]1(C)O : value?
Ans. 9

====

Recorded HDQ-p53UGA213 (Maxfold) by entry
- Test system: p53 R213* UGA premature termination codon in HDQ-P1 mammary carcinoma cells
- test-method-notes: HDQ-p53UGA213 readthrough assay (full-length p53, MSD immunoassay)
- Assay type: cell-based, human
- recorded-conditions: maximum readthrough activity above background; average ± SD
Number only, in fold; omit the unit.

[[record]]
compound = "CN[C@@H]1[C@@H](O)[C@@H](O[C@@H]2[C@@H](O)[C@H](O[C@H]3O[C@H]([C@@H](C)N)CC[C@H]3N)[C@@H](N)C[C@H]2N)OC[C@]1(C)O"
property_label = "HDQ-p53UGA213 (Maxfold)"
measure_unit = "fold"
readout_value = 6

[[record]]
compound = "CN[C@@H]1[C@@H](O)[C@@H](O[C@@H]2[C@@H](O)[C@H](O[C@H]3O[C@H](CO)[C@@H](O)[C@H](O)[C@H]3N)[C@@H](N)C[C@H]2N)OC[C@]1(C)O (stereo in doubt)"
property_label = "HDQ-p53UGA213 (Maxfold)"
measure_unit = "fold"
readout_value = 39

[[record]]
compound = "CN[C@@H]1[C@@H](O)[C@@H](O[C@@H]2[C@@H](O)[C@H](O[C@H]3O[C@H](CO)[C@@H](O)[C@H](O)[C@H]3N)[C@@H](N)C[C@H]2N)OC[C@H]1O"
property_label = "HDQ-p53UGA213 (Maxfold)"
measure_unit = "fold"
readout_value = 3


We next turn to a different compound, shown below.
Qu. p53 R213* UGA premature termination codon in HDQ-P1 mammary carcinoma cells / HDQ-p53UGA213 (Maxfold) / C[C@@H](O)C1O[C@H](O[C@@H]2C(N)C[C@@H](NC(=O)[C@@H](O)CCN)[C@@H](O)C2O[C@@H]2O[C@H](CN)[C@H](O)C2O)[C@@H](N)C(O)[C@@H]1O (stereo partly shown) [NB84, reference compound] : value?
Ans. 30

====

Recorded CC50 at 72 h by entry
- test-method-notes: Cytotoxicity in stimulated PBMCs (CellTitre-Glo ATP)
- recorded-conditions: human, Stimulated PBMC CC50, AVERAGE (S1 File)
Number only, in mM; omit the unit.

[[record]]
molecule = "CN[C@@H]1[C@@H](O)[C@@H](O[C@@H]2[C@@H](O)[C@H](O[C@H]3O[C@H]([C@@H](C)N)CC[C@H]3N)[C@@H](N)C[C@H]2N)OC[C@]1(C)O [Gentamicin C2, gentamicin C2]"
readout_value = 2.18

[[record]]
molecule = "CN[C@@H]1[C@@H](O)[C@@H](O[C@@H]2[C@@H](O)[C@H](O[C@H]3O[C@H]([C@H](C)N)CC[C@H]3N)[C@@H](N)C[C@H]2N)OC[C@]1(C)O [Gentamicin C2a, gentamicin C2a]"
readout_value = 6.71

[[record]]
molecule = "CN[C@@H]1[C@@H](O)[C@@H](O[C@@H]2[C@@H](O)[C@H](O[C@H]3O[C@H](CO)[C@@H](O)[C@H](O)[C@H]3N)[C@@H](N)C[C@H]2N)OC[C@]1(C)O (stereo in doubt) [Gentamicin X2, gentamicin X2]"
readout_value = 2.97


We next turn to a different molecule, shown below.
Qu. # lookup: CC50 at 72 h of CN[C@@H]1[C@@H](O)[C@@H](O[C@@H]2[C@@H](O)[C@H](O[C@H]3O[C@H](CO)[C@@H](O)[C@H](O)[C@H]3N)[C@@H](N)C[C@H]2N)OC[C@H]1O [Gentamicin A, gentamicin A]
Ans. 3.62

====

- test-method-notes: in vivo
- recorded-conditions: zebrafish, Neuromast (CC50), zebrafish embryos 5 dpf, 24 hours exposure, maximum of two measurements
property-label: CC50 (µM)
Number only, in µM; omit the unit.

Qu. # lookup: CC50 of CN[C@@H]1[C@@H](O)[C@@H](O[C@@H]2[C@@H](O)[C@H](O[C@H]3O[C@H]([C@@H](C)O)[C@@H](O)[C@H](O)[C@H]3N)[C@@H](N)C[C@H]2N)OC[C@]1(C)O [G418, reference compound]
Ans. 2.8
